These entries and their values trace back to the supplement of paper PMC10567573.

For each record, write down the corresponding protein stability index.
B1: CPOX (parent)
chain: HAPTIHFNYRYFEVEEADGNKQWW

Variants of: B1
Assay: protein stability index of a GFP-peptide fusion (GPS, HEK-293T) (PSI 1-6); higher = more stable;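 also: lentivirally expressed fusions sorted by FACS into six bins by GFP to DsRed ratio, PSI derived from sequencing read proportions per bin multiplied by bin number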
Details: c terminus: a fixed tail appended
Answer as a number with no unit attached.

Query: Look at this variant and give its reported protein stability index. A17F
Response: 1.97

Query: What does the data say about its protein stability index? Entry: W24P
Response: 2.91

Query: Query (variant): A2T ; field requested: protein stability index
Response: 2.5

Query: Need protein stability index of F12G , thanks.
Response: 3.51

Query: Please give the measured protein stability index for this variant: E13Y
Response: 1.7

Query: Which protein stability index value is on record for P3I ?
Response: 2.92

Query: So what does the record say about protein stability index for H6K ?
Response: 2.36

Query: # input variant: N20M ; wanted: its protein stability index
Response: 1.32

Query: Reported protein stability index, variant V14T : ____
Response: 2.43

Query: // query protein stability index value for entry F12S
Response: 2.87

Query: Report protein stability index for G19W please.
Response: 1.79

Query: For the variant shown here, G19H , give the reported protein stability index.
Response: 1.8

Query: Requested read-out: protein stability index. Entry: W23G
Response: 2.8

Query: Fill in: protein stability index of G19D is ___
Response: 3.04
